target: HIV-1 integrase wild-type (IN1-288) (HIV-1, UniProt P12497 P12497:1148-1435)
assay: inhibition; first activity column (headed strand transfer); other column 0.050
protocol.conditions: G4, loops 1 and 3 inverted
property: IC50 (nM)
Write down the numeric answer in nM and omit the unit.

Query :: Need IC50 of GTGGGTGGTGGGGTGGT (ssDNA, PS at first and last linkages) [T30699] , thanks.
Result :: 136
